tested on: Hepatotoxicity; assay: FDA HLAED, serum glutamic pyruvic transaminase (SGPT) increase; conditions: human
measurement kind: SGPT Increase - Index Value
Lab note: write the figure by itself, no unit.

Cc1nnc2n1-c1ccc(Cl)cc1C(c1ccccc1)=NC2: 0.9
CC(=O)Oc1c(C)cc(OCC(O)CNC(C)C)c(C)c1C (stereo unspecified): 0
CCOC(=O)C1=C(COCCN)NC(C)=C(C(=O)OC)C1c1ccccc1Cl (stereo unspecified): 1.2
O=S(=O)([O-])CCS.[Na+]: 0

From here, focus on the item given below.
Challenge: Quick check: SGPT Increase - Index Value of CCCCCCCCCCC(=O)O[C@H]1CC[C@H]2[C@@H]3CCc4cc(O)ccc4[C@H]3CC[C@]12C [ESTRADIOL UNDECYLATE] ?
Response given: 2.1
